# experimental.protocol: Antiinflammatory activity in human neutrophils assessed as inhibition of FMLP/CB-induced superoxide anion generation by spectrophotometry
# Assay type: functional, cell-based
# assay.context: Neutrophil
quantity.kind: pIC50
pIC50 (log units): -log10 of the concentration in mol/L.

Qu. For the compound CC1=C(C)C2(C[C@@H](C)[C@H]3[C@@H](C[C@@]4(C)C5=C(CC[C@]34C)[C@@]3(C)CC[C@@H](OC(=O)CC(=O)O)C(C)(C)[C@@H]3CC5)O2)OC1=O (stereo partly specified) , report pIC50.
Ans. 5.72

Qu. For the compound C=C(CC[C@@H](C(=O)O)[C@H]1CC[C@@]2(C)C3=C(CC[C@]12C)[C@@]1(C)C[C@H](O)[C@H](O)C(C)(C)[C@@H]1CC3)C(C)C , report pIC50.
Ans. 5.22

Qu. For the compound O=c1cc(N2CCOCC2)oc2c(-c3ccccc3)cccc12 , report pIC50.
Ans. 6.40

###

# experimental.protocol: Antiinflammatory activity in human neutrophils assessed as inhibition of FMLP/CB-induced superoxide anion generation by spectrophotometry
# Type: functional, cell-based
# assay.context: Neutrophil
quantity.kind: IC50

Qu. For the molecule CC1=C(C)C2(C[C@@H](C)[C@H]3[C@@H](C[C@@]4(C)C5=C(CC[C@]34C)[C@@]3(C)CC[C@@H](O)C(C)(C)[C@@H]3CC5)O2)OC1=O (stereo partly drawn) , report IC50.
Ans. > 10 µM

Qu. For the molecule CC1=C(C)C2(C[C@@H](C)[C@H]3[C@@H](C[C@@]4(C)C5=C(CC[C@]34C)[C@@]3(C)CC[C@@H](O)[C@@](C)(C=O)[C@@H]3CC5)O2)OC1=O (stereo partly drawn) , report IC50.
Ans. > 10 µM

Qu. For the molecule COC(=O)CC(=O)O[C@@H]1CC[C@]2(C)C3=C(CC[C@H]2C1(C)C)[C@]1(C)C[C@H]2OC4(C[C@@H](C)[C@@H]2[C@@]1(C)CC3)OC(=O)C(C)=C4C (stereo partly drawn) , report IC50.
Ans. > 10 µM

These data points were gathered from ChEMBL document CHEMBL3739300.
